Molecular target: Biotin QP004.3 (biotin-PDL1-FC) (human) (UniProt Q9NZQ7)
Sequence (Q9NZQ7 19-238 limits assumed): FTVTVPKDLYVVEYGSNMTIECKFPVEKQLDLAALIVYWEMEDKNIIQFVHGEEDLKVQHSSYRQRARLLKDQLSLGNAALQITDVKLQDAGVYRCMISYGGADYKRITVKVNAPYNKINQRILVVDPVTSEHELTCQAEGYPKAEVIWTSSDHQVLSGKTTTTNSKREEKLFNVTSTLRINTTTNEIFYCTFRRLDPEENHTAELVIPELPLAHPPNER
Assay: binding ELISA, antibody coated, biotin-PDL1-FC titrated
measure: ELISA reading at 0.0185 µg/ml biotin-PDL1-FC

a. QP1166 (Fc fusion, not shown: a dimerising Fc or GST) QVQLVESGGDSVQPGGSLRLSCAASGFTYGTYAMSWFRQAPGKEREGVACIDIYGRTSYTDPVKGRFTISQDNAKNTLYLQMNSLKPEDTAMYYCAARDFGYCTASWVHEGFSRYWGQGTQVTVSS
b. QP324 (Fc fusion, not shown: a dimerising Fc or GST) EVQLLESGGGLVQPGGSLRLSCAASGFTYGTYAMSWVRQAPGKGLEWVACIDIYGRTSYTDPVKGRFTISQDNSKNTLYLQMNSLRAEDTAVYYCAARDFGYCTASWVHEGFSRYWGQGTLVTVSS
Exam item: Could you check which of a and b has a smaller value for ELISA reading at 0.0185 µg/ml biotin-PDL1-FC? # respond with the chosen item's label
Marked response: b
(b: 0.107, a: 2.57)

A. QP325 (Fc fusion, not shown: a dimerising Fc or GST) EVQLLESGGGLVQPGGSLRLSCAASGFTYGTYAMSWFRQAPGKGLEGVACIDIYGRTSYTDPVKGRFTISQDNSKNTLYLQMNSLRAEDTAVYYCAARDFGYCTASWVHEGFSRYWGQGTLVTVSS
B. QP320 (Fc fusion, not shown: a dimerising Fc or GST) EVQLLESGGGLVQPGGSLRLSCAASGFTYGTYAMSWVRQAPGKGLEWVSCIDIYGRASYTDPVKGRFTISRDNSKNTLYLQMNSLRAEDTAVYYCAARDFGYCTASWVHEGFSRYWGQGTLVTVSS
Exam item: Could you check which of A and B has a smaller value for ELISA reading at 0.0185 µg/ml biotin-PDL1-FC? # respond with the chosen item's label
Marked response: B
(B: 0.0792, A: 2.12)

Reference source: patent US20230183352A1
